Data origin: ChEMBL document CHEMBL3232816

# procedure summary: Cytotoxicity against human CNS cancer cells after 48 hrs
# Type: functional
# recorded conditions: Cancer cell lines
Counter-ions that a name gives are not always drawn.
experimental endpoint: GI50 (nM)
Kindly answer with a numeric value in nM, unit omitted.

Looking for the measured GI50 of `O=C1Nc2ccc(O)cc2/C1=C\c1c(Cl)n(CCc2ccccc2)c2ccccc12` , can you help?
10500

Check `COc1cc2c(cc1C)NC(=O)/C2=C/c1c(Cl)n(Cc2cc(OC)c(OC)c(OC)c2)c2cc(C)c(OC)cc12` too.
49000

Check `COc1ccc(CCn2c(Cl)c(/C=C3/C(=O)Nc4ccccc43)c3ccccc32)cc1` too.
340

Check `COc1cc2c(c(OC)c1OC)/C(=C\c1c(Cl)[nH]c3ccccc13)C(=O)N2` too.
1580

Check CC[C@]1(O)C[C@H]2CN(CCc3c([nH]c4ccccc34)[C@@](C(=O)OC)(c3cc4c(cc3OC)N(C=O)[C@H]3[C@@](O)(C(=O)OC)[C@H](OC(C)=O)[C@]5(CC)C=CCN6CC[C@]43[C@@H]65)C2)C1 [VINCRISTINE SULFATE] too.
130

Check `COc1c(/C=C2/C(=O)Nc3ccccc32)c2ccccc2n1-c1ccccc1` too.
2190

Check `COc1ccc2c(c1)/C(=C\c1c(Cl)n(C/C=C/c3ccccc3)c3ccccc13)C(=O)N2` too.
2040

Check `O=C1Nc2ccccc2/C1=C\c1c(Cl)n(CCCc2ccccc2)c2ccccc12` too.
16600
